# assayed target: Metabotropic glutamate receptor 6 (Homo sapiens)
# Sequence (O15303 whole entry): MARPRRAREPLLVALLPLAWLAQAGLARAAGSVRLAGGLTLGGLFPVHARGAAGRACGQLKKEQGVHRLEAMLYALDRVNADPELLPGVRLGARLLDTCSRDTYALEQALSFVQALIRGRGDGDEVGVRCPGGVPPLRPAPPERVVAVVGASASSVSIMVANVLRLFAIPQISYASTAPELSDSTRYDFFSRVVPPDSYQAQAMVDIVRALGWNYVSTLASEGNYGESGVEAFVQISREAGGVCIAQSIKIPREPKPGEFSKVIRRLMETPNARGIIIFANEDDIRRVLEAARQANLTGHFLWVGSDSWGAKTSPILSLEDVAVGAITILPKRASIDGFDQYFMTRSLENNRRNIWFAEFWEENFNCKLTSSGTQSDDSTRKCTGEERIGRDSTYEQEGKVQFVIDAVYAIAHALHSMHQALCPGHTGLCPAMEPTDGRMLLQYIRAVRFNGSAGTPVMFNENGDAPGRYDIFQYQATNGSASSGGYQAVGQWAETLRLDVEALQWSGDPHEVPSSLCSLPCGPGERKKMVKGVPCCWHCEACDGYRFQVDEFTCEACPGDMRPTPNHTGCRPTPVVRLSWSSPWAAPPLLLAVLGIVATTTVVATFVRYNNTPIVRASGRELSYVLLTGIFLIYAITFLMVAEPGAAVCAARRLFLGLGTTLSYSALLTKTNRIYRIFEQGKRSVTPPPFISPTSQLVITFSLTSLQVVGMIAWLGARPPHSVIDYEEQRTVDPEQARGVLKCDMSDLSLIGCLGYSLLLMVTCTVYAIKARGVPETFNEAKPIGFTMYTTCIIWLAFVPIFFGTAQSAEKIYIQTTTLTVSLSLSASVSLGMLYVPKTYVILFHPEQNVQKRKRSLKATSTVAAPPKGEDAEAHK
# test method notes: Negative allosteric modulation of mGlu6R (unknown origin)
pIC50: −log10 of the molar value.
metric name: pIC50

| chemical smiles | observed value |
| --- | --- |
| Cn1ccc(COc2cnc(C(N)=O)cc2-c2ccc(F)cc2)n1 | < 4.52 |

---

List of clearance values.
# test method notes: Plasma clearance in Sprague-Dawley rat at 0.2 mg/kg, iv administered as cassette dose by LC-MS/MS analysis
# Format: ADME, organism-based

| chemical smiles | clearance / mL/min/kg |
| --- | --- |
| NC(=O)c1cc(-c2ccc(F)cc2)n2nc(COc3ccnc(C(F)(F)F)c3)cc2n1 | 10 |
| COc1ccc(-c2cc(C(N)=O)nc3cc(COc4cnc(C)nc4)sc23)cc1 | 389 |

The measurements presented in this section are drawn from ChEMBL document CHEMBL4308859.
